Data origin: patent US20080161338A1

Provide the reported melting point of each item.

Data request: Which melting point value is on record for COc1cc2c(cc1OC)-c1c(-c3ncc(C)o3)c(-c3cc(C)c(O)c(C)c3)c(C)n1CC2 [Example 6] ?
Data returned: 222 to 224 °C

Data request: Queued: COc1cc2c(cc1OC)-c1c(-c3nc(-c4ccccc4)no3)c(-c3cc(C)c(O)c(C)c3)c(C)n1CC2 [Example 4]
Data returned: 191 to 193 °C

Data request: Queued: COc1cc2c(cc1OC)-c1c(-c3nc(-c4ccccc4)no3)c(-c3cc(C)c(O)c(C)c3)c(C)n1C(C)C2 (racemic) [Example 3]
Data returned: 203 to 206 °C

Data request: Queued: COc1cc2c(cc1OC)-c1c(-c3nc(C4CC4)no3)c(-c3cc(C)c(O)c(C)c3)c(C)n1C(C)C2 (stereo not drawn) [Example 2]
Data returned: 174 to 175 °C

Data request: Queued: COc1cc2c(cc1OC)-c1c(-c3nc(C)no3)c(-c3cc(C)c(O)c(C)c3)c(C)n1CC2 [Example 5]
Data returned: 218 to 221 °C

Data request: Queued: COc1cc2c(cc1OC)-c1c(-c3nc(C)no3)c(-c3cc(C)c(O)c(C)c3)c(C)n1C(C)C2 (racemic) [Example 1]
Data returned: 182 to 184 °C
